Test system: L. donovani-infected THP-1 macrophages, intracellular amastigote imaging
EXPERIMENTAL PROTOCOL: antileishmanial activity in infected THP-1 macrophages – imaging, THP-1 host macrophages, host toxicity (AID 1159564)
DETAILS: measured here: THP-1 host cell toxicity
ENDPOINT: IC50

Worked cases, IC50 given:
>  <COMPOUND>
O=C(Nc1nccs1)c1ccccc1Cn1cc([N+](=O)[O-])cn1

>  <IC50>
> 50 µM

$$$$
>  <COMPOUND>
CC(C)(C)C(O)(CCc1ccc(Cl)cc1)Cn1cncn1 (stereo not drawn)

>  <IC50>
> 50 µM

$$$$

Please turn your attention to the following entry.
Query for L. donovani-infected THP-1 macrophages, intracellular amastigote imaging: what IC50 does the record show for NCc1csc(Nc2cc(Oc3ccccc3)ncn2)n1 ?
> 50 µM
